These measurements were taken from patent EP0046734A2.

# Tested on: Neisseria meningitidis
# TEST: Antibiotic activity in vitro, agar dilution method in DST agar (MIC)
# Type: cell-based
OBSERVABLE: log10 of MIC (log10 of the value in µg/mL)
Transform log10 | Measure MIC | Unit µg/mL

Here are 2 molecules together with their reported answers.
Give me measured log10 of MIC, please, for this molecule: "CS(=O)(=O)Nc1cc([C@@H](N)C(=O)N[C@@H]2C(=O)N3C(C(=O)O)=C(Cl)CS[C@H]23)ccc1O"
-0.30

Annotate the molecule "CS(=O)(=O)Nc1cc([C@@H](N)C(=O)N[C@@H]2C(=O)N3C(C(=O)O)=CCS[C@H]23)ccc1O" with its measured log10 of MIC.
0.90

More entries:
Name the recorded log10 of MIC of the molecule listed here: "CCS(=O)(=O)Nc1cc([C@@H](N)C(=O)N[C@@H]2C(=O)N3C(C(=O)O)=CCS[C@H]23)ccc1O"
0.60

State its log10 of MIC: "COC1=C(C(=O)O)N2C(=O)[C@@H](NC(=O)[C@H](N)c3ccc(O)c(NS(C)(=O)=O)c3)[C@H]2SC1"
0.00

State, in one line, measured log10 of MIC of "CCS(=O)(=O)Nc1cc([C@@H](N)C(=O)N[C@@H]2C(=O)N3C(C(=O)O)=C(Cl)CS[C@H]23)ccc1O"
-1.00

Give recorded log10 of MIC. "CCS(=O)(=O)Nc1cc([C@@H](N)C(=O)N[C@@H]2C(=O)N3C(C(=O)O)=C(OC)CS[C@H]23)ccc1O"
-1.00

---

Below is a list of entries, each paired with its recorded MIC value.
# Tested on: Klebsiella pneumoniae 372
# TEST: Antibiotic activity in vitro, agar dilution method in DST agar (MIC)
# Assay type: cell-based
Reply numerically in µg/mL, unit not repeated.

Provide MIC, tested on Klebsiella pneumoniae 372, for "CCS(=O)(=O)Nc1cc([C@@H](N)C(=O)N[C@@H]2C(=O)N3C(C(=O)O)=C(OC)CS[C@H]23)ccc1O" .
16

New cases:
Fill: MIC (Klebsiella pneumoniae 372) for this compound "CS(=O)(=O)Nc1cc([C@@H](N)C(=O)N[C@@H]2C(=O)N3C(C(=O)O)=C(Cl)CS[C@H]23)ccc1O"
1

Please report the measured MIC for "COC1=C(C(=O)O)N2C(=O)[C@@H](NC(=O)[C@H](N)c3ccc(O)c(NS(C)(=O)=O)c3)[C@H]2SC1" tested on Klebsiella pneumoniae 372.
2

---

Catalogue of MIC readings, one per entry.
# Test system: Klebsiella pneumoniae 372
# TEST: Antibiotic activity in vitro, agar dilution method in DST agar (MIC)
# Format: cell-based
Kindly write the number and append the unit.

Some compounds with known MIC results, for comparison:
Name the recorded MIC of the item CS(=O)(=O)Nc1cc([C@@H](N)C(=O)N[C@@H]2C(=O)N3C(C(=O)O)=CCS[C@H]23)ccc1O [Verbindung 2] in your answer.
4 µg/mL

Report measured MIC; entry is CCS(=O)(=O)Nc1cc([C@@H](N)C(=O)N[C@@H]2C(=O)N3C(C(=O)O)=C(Cl)CS[C@H]23)ccc1O [Verbindung 5]
1 µg/mL

***
// fetch MIC given entry CCS(=O)(=O)Nc1cc([C@@H](N)C(=O)N[C@@H]2C(=O)N3C(C(=O)O)=CCS[C@H]23)ccc1O [Verbindung 4]
4 µg/mL
